Test system: Escherichia coli TOP10
Assay: shrunken log2 fold change of peptide-encoding DNA abundance (4.5 h post-induction vs induction); higher = less antimicrobial activity (less host growth inhibition)
Settings: time post-induction: 4.5 h; library: site-saturation at positions 5, 18, 19, 20
READOUT NAME: shrunken log2 fold change
Just the number, please, no unit after it.

# shrunken log2 fold change lookup, item RRIRHRPPRLPRPRPRPTLGPRP
-0.0595

RRIRVRPPRLPRPRPRPHFKPRP , same question.
-0.0898

And then RRIRCRPPRLPRPRPRPCWCPRP , what is it?
-0.203

Thanks! And RRIRTRPPRLPRPRPRPKCMPRP ?
-0.134

Input RRIRCRPPRLPRPRPRPGQNPRP
0.261

Record: RRIRVRPPRLPRPRPRPHMYPRP
-0.509

And the next one, RRIRERPPRLPRPRPRPTKWPRP ?
0.155

What do we get for RRIRFRPPRLPRPRPRPEFRPRP ?
-0.0593

Can you handle RRIRVRPPRLPRPRPRPFLWPRP next?
-0.698

Same lookup for RRIRNRPPRLPRPRPRPYNHPRP , please.
-1.85

Would you mind doing RRIRQRPPRLPRPRPRPHNHPRP as well?
-0.811

// same read-out, input: RRIRKRPPRLPRPRPRPWTEPRP
-0.172

Do the same for RRIRARPPRLPRPRPRPKLCPRP please
0.225

Likewise for RRIRIRPPRLPRPRPRPHCVPRP ?
-0.533

Thanks! And RRIRNRPPRLPRPRPRPPEDPRP ?
0.174

Again, but for RRIRNRPPRLPRPRPRPQKVPRP
0.007

Same read-out for RRIRDRPPRLPRPRPRPFKGPRP ?
-0.617

Also, RRIRHRPPRLPRPRPRPQWCPRP please.
-0.218

Okay, and RRIRHRPPRLPRPRPRPWKHPRP ?
-0.0222

Try RRIRQRPPRLPRPRPRPHHCPRP next.
-0.652

// next record RRIRARPPRLPRPRPRPVMKPRP
-0.205

Lookup RRIRPRPPRLPRPRPRPGLNPRP
0.0174

Please give the result for RRIRNRPPRLPRPRPRPAYYPRP too.
-0.0433

RRIRIRPPRLPRPRPRPRATPRP , same question.
0.728

Can you check RRIRMRPPRLPRPRPRPLTWPRP next?
0.308

Further, for RRIRARPPRLPRPRPRPFEPPRP ?
0.276

Query RRIRNRPPRLPRPRPRPPHMPRP next
-0.217

What about this sequence? RRIRVRPPRLPRPRPRPQKIPRP
0.0538

Next entry: RRIRTRPPRLPRPRPRPENPPRP
0.261

Repeat for the following sequence: RRIRERPPRLPRPRPRPYIHPRP
-0.17

Follow-up entry: RRIRTRPPRLPRPRPRPLIPPRP
-0.106

Follow-up entry: RRIRARPPRLPRPRPRPAYIPRP
-0.148

Now give it for RRIRMRPPRLPRPRPRPCTEPRP too.
-0.0649

What do you have for RRIRNRPPRLPRPRPRPWIRPRP ?
-0.399

Let us now turn to RRIRDRPPRLPRPRPRPRSKPRP
0.401

Then RRIRCRPPRLPRPRPRPGMMPRP ?
-0.389

Follow-up entry: RRIRRRPPRLPRPRPRPWDGPRP
0.399

Same question for RRIRWRPPRLPRPRPRPVNPPRP please.
0.0699

Thanks! And RRIRARPPRLPRPRPRPGETPRP ?
0.238

And RRIRPRPPRLPRPRPRPKTSPRP ?
0.0127

Follow-up entry: RRIRRRPPRLPRPRPRPRPGPRP
0.557

Now this one: RRIRDRPPRLPRPRPRPQTMPRP
-0.067

// next record RRIRHRPPRLPRPRPRPLVDPRP
-0.219

Do the same for RRIRRRPPRLPRPRPRPPPGPRP please
1.05

Further, for RRIRGRPPRLPRPRPRPIYQPRP ?
0.0644

Can you handle RRIRYRPPRLPRPRPRPPYPPRP next?
-0.257

Then RRIRGRPPRLPRPRPRPAFHPRP ?
0.209

Follow-up item: RRIRVRPPRLPRPRPRPDNHPRP
0.0415

Can you check RRIRMRPPRLPRPRPRPILQPRP next?
0.133

Next up: RRIRCRPPRLPRPRPRPAHTPRP
-0.0293

Check RRIRVRPPRLPRPRPRPGEPPRP too.
0.043

Now the sequence RRIRWRPPRLPRPRPRPTTQPRP
-0.0204

Now consider RRIRVRPPRLPRPRPRPVNCPRP .
-0.17

Can you handle RRIRGRPPRLPRPRPRPVISPRP next?
0.623

How about this sequence: RRIRERPPRLPRPRPRPQVGPRP
-0.0112

Next record, please: RRIRTRPPRLPRPRPRPKYFPRP
-0.444

====

Test system: Escherichia coli TOP10;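 note: peptides expressed intracellularly from a pBAD plasmid library in pooled LB shake-flask culture, induced with 0.3% L-arabinose, DNA abundance read by NGS, three biological replicates, DESeq2 with apeglm shrinkage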
Experiment: shrunken log2 fold change of peptide-encoding DNA abundance (4.5 h post-induction vs induction); higher = less antimicrobial activity (less host growth inhibition)
Details: time post-induction: 4.5 h; library: site-saturation at positions 5, 18, 19, 20
Returns one of 1 or -1; 1 when shrunken log2 fold change is >= 0.1.

hey, is shrunken log2 fold change for this one >= 0.1? RRIRGRPPRLPRPRPRPIFRPRP
-1

Now try RRIRHRPPRLPRPRPRPQKQPRP .
1

Then RRIRKRPPRLPRPRPRPKQGPRP ?
1

Moving on to RRIRFRPPRLPRPRPRPCRCPRP
-1

Request: RRIRKRPPRLPRPRPRPFLKPRP
-1

Cool, now RRIRNRPPRLPRPRPRPSPCPRP
-1

Next up: RRIRWRPPRLPRPRPRPVNGPRP
-1

Same again, this time with RRIRLRPPRLPRPRPRPCVYPRP
-1

Ok, now RRIRTRPPRLPRPRPRPIKTPRP
-1

Also RRIRARPPRLPRPRPRPPTRPRP ?
1

Record: RRIRARPPRLPRPRPRPNMGPRP
1

Also check RRIRERPPRLPRPRPRPHTAPRP
-1

What do we get for RRIRFRPPRLPRPRPRPECFPRP ?
-1

Entry to check: RRIRVRPPRLPRPRPRPLLRPRP
-1

Now the same for RRIRFRPPRLPRPRPRPVGDPRP
1

Check RRIRERPPRLPRPRPRPHIEPRP too.
-1

Param item: RRIRWRPPRLPRPRPRPRFAPRP
1

Do the same for RRIRARPPRLPRPRPRPEGSPRP please
1

Same again, this time with RRIRYRPPRLPRPRPRPALLPRP
-1

Repeat with RRIRVRPPRLPRPRPRPQHFPRP
-1

Try this sequence next: RRIRDRPPRLPRPRPRPCYPPRP
-1

Next sequence: RRIRMRPPRLPRPRPRPSADPRP
1

What do you get for RRIRKRPPRLPRPRPRPFIFPRP ?
-1

Ok, now RRIRCRPPRLPRPRPRPPSAPRP
1

Item: RRIRTRPPRLPRPRPRPFKQPRP
-1

Also RRIRWRPPRLPRPRPRPGRKPRP , if possible.
-1

Next: RRIRHRPPRLPRPRPRPWTIPRP
-1

Try the sequence RRIRDRPPRLPRPRPRPNYVPRP
-1

// next record RRIRGRPPRLPRPRPRPIVGPRP
-1

Subsequent entry: RRIRYRPPRLPRPRPRPIVVPRP
-1

Further, for RRIRYRPPRLPRPRPRPGFEPRP ?
-1

Also need RRIRDRPPRLPRPRPRPDMYPRP , thanks.
1

Similarly, RRIRARPPRLPRPRPRPAYLPRP ?
1

Another sequence to check: RRIRVRPPRLPRPRPRPAHKPRP
-1

And RRIRVRPPRLPRPRPRPPTVPRP ?
1

Now the sequence RRIRGRPPRLPRPRPRPDRIPRP
1

Can you check RRIRLRPPRLPRPRPRPMSMPRP next?
1

Another sequence: RRIRKRPPRLPRPRPRPELRPRP
1

Consider next the sequence RRIRLRPPRLPRPRPRPDIEPRP in the same way.
-1

Repeat for the following sequence: RRIRKRPPRLPRPRPRPAKVPRP
-1

Next: RRIRTRPPRLPRPRPRPCQNPRP
-1

# iterate: RRIRERPPRLPRPRPRPAAVPRP
-1

Query RRIRCRPPRLPRPRPRPLNRPRP next
-1

Please give the result for RRIRGRPPRLPRPRPRPGHHPRP too.
1

Thanks! And RRIRIRPPRLPRPRPRPIIMPRP ?
-1

Similarly, RRIRGRPPRLPRPRPRPRLQPRP ?
1

Next: RRIRPRPPRLPRPRPRPDITPRP
-1

Likewise for RRIRFRPPRLPRPRPRPKMHPRP ?
-1

Next entry: RRIRYRPPRLPRPRPRPCSEPRP
-1

Try this sequence too: RRIRTRPPRLPRPRPRPDLLPRP
-1

How about RRIRIRPPRLPRPRPRPFWMPRP ?
-1
